Listed compounds paired with reported Normalized viability % DMSO
Test system: ABC-1
Test: Cell Viability Assay (CellTiter-Glo)
Assay type: cell-based
Details: 10 μM, 5 days
Numeric only. Scale: % DMSO

CC[S+]([O-])C1CCCCC1NC(=O)[C@@H]1C[C@@H](O)CN1C(=O)[C@@H](n1cc(C2CC2)nn1)C(C)(C)C (stereo partly shown) [Compound 554] :: 38.2

// Normalized viability % DMSO value for CC(C)(C)[C@@H](C(=O)N1C[C@H](O)C[C@H]1C(=O)NCc1ncc(-c2ccccc2)s1)n1cc(C2CC2)nn1 [Compound 140] : 45.3

// Normalized viability % DMSO value for CC(C)(C)[C@@H](C(=O)N1C[C@H](O)C[C@H]1C(=O)N[C@@H]1C[C@@H](c2ccccc2)Oc2ccccc21)n1cc(C2CC2)nn1 [Compound 343] : 44.1

// Normalized viability % DMSO value for CNC(=O)[C@@H]1C[C@@H](O)CN1C(=O)[C@@H](n1cc(COc2ccccc2F)nn1)C(C)(C)C [Compound 729] : 35.8

====

Target: VHL (Homo sapiens, UniProt P40337)
Construct: expressed in transfected cells
Sequence (P40337 whole entry): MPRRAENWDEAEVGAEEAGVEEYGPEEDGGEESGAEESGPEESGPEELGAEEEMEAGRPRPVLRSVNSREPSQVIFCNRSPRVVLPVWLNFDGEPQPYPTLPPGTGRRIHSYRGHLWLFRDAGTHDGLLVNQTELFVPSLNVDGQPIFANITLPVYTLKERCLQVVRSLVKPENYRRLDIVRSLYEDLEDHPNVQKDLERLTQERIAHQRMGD
Assay: VHL HEK-293 BRET Assay (VHL NanoBRET Target Engagement Assay)
Assay type: cell-based
Settings: HEK 293 RT VHL-NanoLuc stable cells; read-out: IC50
Rule for this label: yes means IC50 is less than 900 nM; no means IC50 is at least 900 nM.

CCc1onc(C)c1CNC(=O)[C@@H]1C[C@@H](O)CN1C(=O)[C@@H](n1cc(C2CC2)nn1)C(C)(C)C :: no

IN: IC50 strictly < 900 nM for this molecule? CNC(=O)C1CC(O)CN1C(=O)[C@@H](n1cc(C2CCC(C(=O)OC)CC2)nn1)C(C)(C)C (stereo in doubt)
OUT: no

IN: IC50 strictly < 900 nM for this molecule? `CC(C)(C)[C@@H](C(=O)N1C[C@H](O)C[C@H]1C(=O)N[C@@H]1C[C@@H](c2ccccc2)Oc2ccccc21)n1cc(C2CC2)nn1`
OUT: yes

IN: IC50 strictly < 900 nM for this molecule? `CC(C)(C)[C@@H](C(=O)N1C[C@H](O)C[C@H]1C(=O)NCc1ncc(-c2ccccc2)s1)n1cc(C2CC2)nn1`
OUT: yes

IN: IC50 strictly < 900 nM for this molecule? `Cc1ncsc1-c1ccc(CNC(=O)[C@@H]2C[C@@H](O)CN2C(=O)[C@@H](n2cc(C3CC3)nn2)C(C)(C)C)cc1`
OUT: yes

IN: IC50 strictly < 900 nM for this molecule? `CNC(=O)[C@@H]1C[C@@H](O)CN1C(=O)[C@@H](n1cc(Cn2cnc3cc(C)c(C)cc32)nn1)C(C)(C)C`
OUT: no

IN: IC50 strictly < 900 nM for this molecule? CC(C)(C)[C@@H](C(=O)N1C[C@H](O)C[C@H]1C(=O)NC1CCc2c(Cl)cc(Cl)cc21)n1cc(C2CC2)nn1 (stereo partly shown)
OUT: no

IN: IC50 strictly < 900 nM for this molecule? CCC(NC(=O)[C@@H]1C[C@@H](O)CN1C(=O)[C@@H](n1cc(C2CC2)nn1)C(C)(C)C)c1noc(-c2cccc(Br)c2)n1 (stereo partly shown)
OUT: yes

IN: IC50 strictly < 900 nM for this molecule? `CNC(=O)[C@@H]1C[C@@H](O)CN1C(=O)[C@@H](n1cc(CN2CCC(C(=O)OC)CC2)nn1)C(C)(C)C`
OUT: no

IN: IC50 strictly < 900 nM for this molecule? `Cc1ccc(N2CCC[C@H]2CNC(=O)[C@@H]2C[C@@H](O)CN2C(=O)[C@@H](n2cc(C3CC3)nn2)C(C)(C)C)cc1`
OUT: no
